Target: mouse ADAMTS7 (Mus musculus, UniProt Q68SA9, E373Q)
Construct: Full-length mouse Adamts7 1-1857 (Uniprot Q68SA9, WT or E373Q catalytic mutant); expressed in transfected cells; host or cells: Human Coronary Artery Smooth Muscle Cells (HCA-SMC, Lonza), adenovirus 50 MOI
Sequence (Q68SA9 221-1657 E373Q): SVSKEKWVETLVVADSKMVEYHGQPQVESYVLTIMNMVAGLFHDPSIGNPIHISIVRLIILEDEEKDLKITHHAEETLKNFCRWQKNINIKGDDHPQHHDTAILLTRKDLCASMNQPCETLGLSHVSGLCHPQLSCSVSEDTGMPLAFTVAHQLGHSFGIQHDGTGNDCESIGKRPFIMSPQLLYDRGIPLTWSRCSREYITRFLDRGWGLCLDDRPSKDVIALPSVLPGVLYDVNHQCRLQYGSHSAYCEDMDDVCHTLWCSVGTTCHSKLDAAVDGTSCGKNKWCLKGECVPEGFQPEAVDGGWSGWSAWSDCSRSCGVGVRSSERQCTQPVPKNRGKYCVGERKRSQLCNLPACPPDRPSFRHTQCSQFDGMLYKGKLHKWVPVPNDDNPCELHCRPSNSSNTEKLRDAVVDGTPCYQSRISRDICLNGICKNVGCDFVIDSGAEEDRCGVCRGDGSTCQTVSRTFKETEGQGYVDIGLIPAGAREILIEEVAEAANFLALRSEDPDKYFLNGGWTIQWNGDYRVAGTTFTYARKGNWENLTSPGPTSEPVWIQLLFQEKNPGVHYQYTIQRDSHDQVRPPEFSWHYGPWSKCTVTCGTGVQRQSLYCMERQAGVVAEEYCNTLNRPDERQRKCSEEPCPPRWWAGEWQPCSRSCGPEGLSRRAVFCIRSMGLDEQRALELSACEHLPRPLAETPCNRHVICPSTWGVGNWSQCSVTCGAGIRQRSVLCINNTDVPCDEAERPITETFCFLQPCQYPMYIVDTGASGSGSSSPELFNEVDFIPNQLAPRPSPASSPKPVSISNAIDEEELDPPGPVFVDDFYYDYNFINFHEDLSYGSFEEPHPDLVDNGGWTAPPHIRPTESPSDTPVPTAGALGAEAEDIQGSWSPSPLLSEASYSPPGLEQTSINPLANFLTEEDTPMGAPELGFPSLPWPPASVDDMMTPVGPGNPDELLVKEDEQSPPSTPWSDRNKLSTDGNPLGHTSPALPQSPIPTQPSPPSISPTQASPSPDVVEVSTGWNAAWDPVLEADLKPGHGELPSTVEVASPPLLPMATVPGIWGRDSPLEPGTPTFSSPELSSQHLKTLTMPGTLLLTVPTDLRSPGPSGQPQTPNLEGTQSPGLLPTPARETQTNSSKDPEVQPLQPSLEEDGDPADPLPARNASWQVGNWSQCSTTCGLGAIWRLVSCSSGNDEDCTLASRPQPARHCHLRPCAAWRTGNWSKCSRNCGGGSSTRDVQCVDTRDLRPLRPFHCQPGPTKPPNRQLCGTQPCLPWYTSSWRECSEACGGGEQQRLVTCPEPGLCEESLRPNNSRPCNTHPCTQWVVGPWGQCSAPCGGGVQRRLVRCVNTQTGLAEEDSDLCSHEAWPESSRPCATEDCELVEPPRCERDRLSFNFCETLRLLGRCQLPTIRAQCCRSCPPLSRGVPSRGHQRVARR
Assay: TMT10 TAILS N-terminomics, SMC2 experiment (process replicates, trypsin/AspN digest)
Type: cell-based
Details: SMC2_TAILS HC; log fold change of N-terminal peptide, Ad-mADAMTS7 EQ over Luc
Square brackets hold non-standard residues; d marks the D form. Ends that are not written are not given here. Met(O) = CS(=O)CC[C@H](N)C(=O)O
Entries and their measured logFC.mEQ.over.Luc follow.
property: logFC.mEQ.over.Luc

# substance, property, readout number
records = [
    ("VIM_314 (QESTEYR; listed as Homo sapiens)", "logFC.mEQ.over.Luc", "−0.22"),
    ("LTBP1_540 (HQQVIPHVYPVAAKTQLGR; listed as Homo sapiens)", "logFC.mEQ.over.Luc", 0.05),
    ("LTBP3_208 (FLVPLGPGQISA; listed as Homo sapiens)", "logFC.mEQ.over.Luc", "−0.03"),
    ("PPP1R18_295 (LSETLTR; listed as Homo sapiens)", "logFC.mEQ.over.Luc", 0.03),
    ("POSTN_727 (IITGPEIKYTR; listed as Homo sapiens)", "logFC.mEQ.over.Luc", "−0.09"),
    ("TNS1_236 (QEGLAGYQR; listed as Homo sapiens)", "logFC.mEQ.over.Luc", "−0.59"),
    ("MMP1_100 (FVLTEGNPR; listed as Homo sapiens)", "logFC.mEQ.over.Luc", "−0.05"),
    ("SRGN_59 (LLPGESNKIPR; listed as Homo sapiens)", "logFC.mEQ.over.Luc", 0.05),
    ("QSOX1_210 (HKGVAVR; listed as Homo sapiens)", "logFC.mEQ.over.Luc", "−0.49"),
    ("SHC2_267 (VAKDPINQRACHIL; listed as Homo sapiens)", "logFC.mEQ.over.Luc", 0.04),
    ("MAP4_816 (VASTGPSSR; listed as Homo sapiens)", "logFC.mEQ.over.Luc", 0.02),
    ("VIM_333 (LKGTNESLER; listed as Homo sapiens)", "logFC.mEQ.over.Luc", "−0.09"),
    ("TTN_5975 (VKEPPVEFTKPL; listed as Homo sapiens)", "logFC.mEQ.over.Luc", "−0.19"),
    ("SPOCK1_27 (LAGGAGPNHGNFL; listed as Homo sapiens)", "logFC.mEQ.over.Luc", "−0.65"),
    ("PAK4_141 (HSEAGGGSG; listed as Homo sapiens)", "logFC.mEQ.over.Luc", 0.69),
    ("TNPO2_744 (VQ[Met(O)]VLNNLVEII[code n]RP[code n]TPKTLLE; listed as Homo sapiens)", "logFC.mEQ.over.Luc", 0.06),
    ("LOXL2_38 ([code q]QPAPEYHQPQAPANVAKIQLR; not fully specified; listed as Homo sapiens)", "logFC.mEQ.over.Luc", 0.06),
    ("LTBP2_250 (SAAGEGTLAR; listed as Homo sapiens)", "logFC.mEQ.over.Luc", "−0.21"),
    ("PLIN3_75 (VSGAQPILSKL; listed as Homo sapiens)", "logFC.mEQ.over.Luc", 0.07),
]

Values compiled from patent US20240368668A1.
